assay: Inhibition of VEGFR2-mediated angiogenesis in human HUVEC cells after 24 hrs by inverted photomicroscopic analysis
endpoint.label: IC50
Answers without a unit are incomplete; give the number and then its unit.

Input: Quick one: IC50 of COC(=O)Nc1nc2ccc(C(=O)c3ccccc3)cc2[nH]1 ?
Output: 8.8 µM
